All values here come from ChEMBL document CHEMBL5032498.

// values below are reported selectivity ratio
- Measurement Protocol: Selectivity index, ratio of CC50 for human RD cells to EC50 for Enterovirus D68 US/KY/14-18953 in human RD cells
- Format: toxicity, cell-based
- Measurement Setup: read-out: Ratio CC50/EC50
Property: selectivity ratio

[
  {
    "Compound": "CN(C)CCNC(=O)c1cc(C2CC2)nc2c1cnn2C",
    "Result": "> 30.6"
  },
  {
    "Compound": "CC(CN(C)C)NC(=O)c1cc(C(C)C)nc2c1cnn2C(C)C (stereo unspecified)",
    "Result": "> 100"
  },
  {
    "Compound": "CCn1ncc2c(C(=O)NCCNC)cc(C)nc21",
    "Result": "> 5.1"
  },
  {
    "Compound": "CNCCNC(=O)c1cc(C)nc2c1cnn2C(C)C",
    "Result": "> 130"
  },
  {
    "Compound": "Cc1cc(C(=O)NC2CCN(C)C2)c2cnn(C(C)C)c2n1 (stereo unspecified)",
    "Result": "> 167"
  },
  {
    "Compound": "Cc1cc(C(=O)NCCN)c2cnn(C(C)C)c2n1",
    "Result": "> 63.8"
  },
  {
    "Compound": "CC(C)c1cc(C(=O)NCCO)c2cnn(C(C)C)c2n1",
    "Result": "> 10.2"
  },
  {
    "Compound": "CCn1ncc2c(C(=O)NCCN(C)C)cc(C)nc21",
    "Result": "> 16.4"
  },
  {
    "Compound": "CC(C)n1ncc2c(C(=O)Nc3ccccn3)cc(-c3cccs3)nc21",
    "Result": "> 250"
  },
  {
    "Compound": "Cc1cc(C(=O)NC2CN(C)C2)c2cnn(C(C)C)c2n1",
    "Result": "> 26.5"
  },
  {
    "Compound": "CNCCNC(=O)c1cc(C(C)C)nc2c1cnn2C(C)C",
    "Result": "> 250"
  }
]
